Molecular target: Extracellular calcium-sensing receptor (Homo sapiens)
Sequence (P41180 whole entry): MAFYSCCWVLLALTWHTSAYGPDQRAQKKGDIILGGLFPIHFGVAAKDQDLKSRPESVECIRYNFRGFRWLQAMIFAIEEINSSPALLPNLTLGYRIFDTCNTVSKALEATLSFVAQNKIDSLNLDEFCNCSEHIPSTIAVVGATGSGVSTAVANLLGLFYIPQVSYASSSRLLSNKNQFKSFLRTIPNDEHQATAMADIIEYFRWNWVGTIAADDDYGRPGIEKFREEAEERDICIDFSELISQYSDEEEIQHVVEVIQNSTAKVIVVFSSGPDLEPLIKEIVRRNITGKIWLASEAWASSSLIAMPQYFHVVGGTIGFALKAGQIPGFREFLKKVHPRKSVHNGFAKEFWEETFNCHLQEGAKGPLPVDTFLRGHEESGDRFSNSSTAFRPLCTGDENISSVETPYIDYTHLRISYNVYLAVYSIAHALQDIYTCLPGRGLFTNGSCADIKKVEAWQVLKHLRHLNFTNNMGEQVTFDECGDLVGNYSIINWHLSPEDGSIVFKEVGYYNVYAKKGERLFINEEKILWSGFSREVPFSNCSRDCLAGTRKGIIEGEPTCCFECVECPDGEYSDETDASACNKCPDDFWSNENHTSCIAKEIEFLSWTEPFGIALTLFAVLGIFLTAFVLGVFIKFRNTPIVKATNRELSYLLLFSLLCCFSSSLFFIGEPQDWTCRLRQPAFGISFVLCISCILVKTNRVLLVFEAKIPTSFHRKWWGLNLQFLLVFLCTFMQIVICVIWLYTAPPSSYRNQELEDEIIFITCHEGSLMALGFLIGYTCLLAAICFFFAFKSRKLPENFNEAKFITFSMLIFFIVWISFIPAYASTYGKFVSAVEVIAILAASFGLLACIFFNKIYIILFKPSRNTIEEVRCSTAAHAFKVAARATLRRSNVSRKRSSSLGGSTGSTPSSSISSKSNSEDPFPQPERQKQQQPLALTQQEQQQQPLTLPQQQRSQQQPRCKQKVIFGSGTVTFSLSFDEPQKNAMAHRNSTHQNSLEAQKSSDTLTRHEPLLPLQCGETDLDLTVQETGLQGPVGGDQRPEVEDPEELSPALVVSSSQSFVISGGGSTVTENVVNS
Assay: Antagonist activity at human CaSR expressed in CCL39 cells assessed as inhibition of extracellular calcium-induced intracellular calcium transient by FLIPR assay
outcome_measure: IC50 (nM)
Give bare numbers, in nM.

Answered cases to consult:
CC(C)c1ccc(-c2nc(=O)n(Cc3ccccc3)c3ccc(O)c(CC4CC4)c23)cc1: 2.5
C#CCOc1ccc2c(c1)c(-c1ccc(C(C)C)cc1)nc(=O)n2Cc1ccc(OCC)cc1: 19
C#CCOc1ccc2c(c1)c(-c1ccc(C(C)C)cc1)nc(=O)n2Cc1ccccc1: 4.4
COc1ccc2c(c1)c(-c1ccc(-c3ccccc3)cc1)nc(=O)n2C(C)C: 5500
C=CCNc1ccc2c(c1)c(-c1ccc(C(C)C)cc1)nc(=O)n2C(C)C: 70

Please give IC50, item by item, for the list that follows.
1. C=CCc1c(O)ccc2c1c(-c1ccc(C(C)C)cc1)nc(=O)n2Cc1ccccc1
2. C#CCOc1ccc2c(c1)c(-c1ccc(C(C)C)cc1)nc(=O)n2Cc1cccc(OCCO)c1

[3.9, 7.3]

Taken from ChEMBL document CHEMBL1157601.
